Listed next: entries and their corresponding log10 IC50.
# testedOn: T1, cynomolgus monkey IL-33 expressed with a C-terminal hexahistidine tag (cynomolgus monkey)
# T1 construct: also called MfIL-33-6His; Mf-IL-33-6His
# T1 chain: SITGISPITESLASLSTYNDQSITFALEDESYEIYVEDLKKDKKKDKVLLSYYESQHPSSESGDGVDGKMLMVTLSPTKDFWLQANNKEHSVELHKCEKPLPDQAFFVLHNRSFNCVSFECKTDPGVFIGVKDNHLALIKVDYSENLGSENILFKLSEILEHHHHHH
# protocolSummary: competition ELISA, 150 pM MfIL-33-6His on coated hST2-hFc
endpointName: log10 IC50 (log10 of the value in nM)

- binder: "H4H9671P (antibody, human IgG4, V domains shown, Human IgG4 Fc (H4H)) VH: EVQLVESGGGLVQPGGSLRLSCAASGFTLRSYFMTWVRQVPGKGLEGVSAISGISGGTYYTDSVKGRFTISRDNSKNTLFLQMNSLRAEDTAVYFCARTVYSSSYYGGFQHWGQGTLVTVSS VL: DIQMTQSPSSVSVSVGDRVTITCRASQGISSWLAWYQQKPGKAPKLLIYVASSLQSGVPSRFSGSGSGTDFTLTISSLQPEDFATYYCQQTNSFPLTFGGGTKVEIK"
  log10 IC50: -0.24
- binder: "H4H9676P (antibody, human IgG4, V domains shown, Human IgG4 Fc (H4H)) VH: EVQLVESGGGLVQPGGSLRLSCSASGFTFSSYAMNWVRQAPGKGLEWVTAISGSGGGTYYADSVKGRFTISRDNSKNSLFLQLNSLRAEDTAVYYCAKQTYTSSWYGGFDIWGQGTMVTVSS VL: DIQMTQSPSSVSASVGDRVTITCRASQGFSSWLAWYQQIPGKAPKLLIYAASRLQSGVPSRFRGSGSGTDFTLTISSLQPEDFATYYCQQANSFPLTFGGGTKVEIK"
  log10 IC50: 0.51
- binder: "H1M9568N (antibody, mouse IgG1, V domains shown, Human variable domains, mouse IgG1 Fc (H1M)) VH: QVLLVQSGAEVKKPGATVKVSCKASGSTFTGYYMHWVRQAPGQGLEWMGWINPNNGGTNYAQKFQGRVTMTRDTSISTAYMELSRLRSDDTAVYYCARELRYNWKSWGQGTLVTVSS VL: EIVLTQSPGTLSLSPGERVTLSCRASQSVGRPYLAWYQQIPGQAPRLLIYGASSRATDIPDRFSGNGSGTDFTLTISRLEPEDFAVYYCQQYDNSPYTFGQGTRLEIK"
  log10 IC50: -0.08
- binder: "H4H9659P (antibody, human IgG4, V domains shown, Human IgG4 Fc (H4H)) VH: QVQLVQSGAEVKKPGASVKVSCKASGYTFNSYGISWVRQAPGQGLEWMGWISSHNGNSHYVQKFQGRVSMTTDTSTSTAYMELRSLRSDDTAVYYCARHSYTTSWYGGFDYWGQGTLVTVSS VL: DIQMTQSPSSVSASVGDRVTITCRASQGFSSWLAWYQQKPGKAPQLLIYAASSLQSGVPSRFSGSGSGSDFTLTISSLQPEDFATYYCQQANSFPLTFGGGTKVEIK"
  log10 IC50: -0.22
- binder: "H4H9640P (antibody, human IgG4, V domains shown, Human IgG4 Fc (H4H)) VH: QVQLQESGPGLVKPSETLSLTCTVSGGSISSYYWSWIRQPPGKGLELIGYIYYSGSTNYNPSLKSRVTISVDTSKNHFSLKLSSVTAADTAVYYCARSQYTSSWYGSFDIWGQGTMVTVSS VL: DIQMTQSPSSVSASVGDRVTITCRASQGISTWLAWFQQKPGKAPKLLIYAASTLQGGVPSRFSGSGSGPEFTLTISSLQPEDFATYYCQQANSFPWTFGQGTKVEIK"
  log10 IC50: 0.54
- binder: "H4H9672P (antibody, human IgG4, V domains shown, Human IgG4 Fc (H4H)) VH: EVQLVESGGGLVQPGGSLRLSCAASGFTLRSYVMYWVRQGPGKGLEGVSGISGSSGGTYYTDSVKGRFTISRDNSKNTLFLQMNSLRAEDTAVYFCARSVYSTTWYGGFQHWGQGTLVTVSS VL: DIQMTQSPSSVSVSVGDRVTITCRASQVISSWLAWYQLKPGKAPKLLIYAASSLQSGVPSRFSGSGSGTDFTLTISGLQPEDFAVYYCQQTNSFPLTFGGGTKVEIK"
  log10 IC50: 0.74
- binder: "H4H9664P (antibody, human IgG4, V domains shown, Human IgG4 Fc (H4H)) VH: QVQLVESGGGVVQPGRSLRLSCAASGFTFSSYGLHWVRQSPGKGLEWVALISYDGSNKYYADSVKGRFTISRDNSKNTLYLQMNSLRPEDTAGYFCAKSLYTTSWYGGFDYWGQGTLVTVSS VL: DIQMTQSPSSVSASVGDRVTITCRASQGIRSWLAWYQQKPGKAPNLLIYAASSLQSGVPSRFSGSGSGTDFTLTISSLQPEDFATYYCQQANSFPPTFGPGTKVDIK"
  log10 IC50: 0.58
- binder: "H4H9670P (antibody, V domains shown, Human IgG4 Fc (H4H)) VH: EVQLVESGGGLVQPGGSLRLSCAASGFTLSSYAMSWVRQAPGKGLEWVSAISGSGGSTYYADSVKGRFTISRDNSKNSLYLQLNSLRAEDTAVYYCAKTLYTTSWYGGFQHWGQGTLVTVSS VL: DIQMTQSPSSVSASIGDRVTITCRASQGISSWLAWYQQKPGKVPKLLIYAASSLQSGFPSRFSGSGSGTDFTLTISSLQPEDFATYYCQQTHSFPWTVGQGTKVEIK"
  log10 IC50: 0.54
- binder: "H1M9559N (antibody, mouse IgG1, V domains shown, Human variable domains, mouse IgG1 Fc (H1M)) VH: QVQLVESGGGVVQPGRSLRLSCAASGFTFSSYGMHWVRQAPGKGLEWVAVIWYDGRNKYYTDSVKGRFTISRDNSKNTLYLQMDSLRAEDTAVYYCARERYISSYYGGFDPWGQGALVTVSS VL: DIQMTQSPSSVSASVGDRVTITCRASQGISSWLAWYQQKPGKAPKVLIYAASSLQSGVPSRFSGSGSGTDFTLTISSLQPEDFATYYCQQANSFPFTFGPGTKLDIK"
  log10 IC50: 1.00
- binder: "H4H9662P (antibody, V domains shown, Human IgG4 Fc (H4H)) VH: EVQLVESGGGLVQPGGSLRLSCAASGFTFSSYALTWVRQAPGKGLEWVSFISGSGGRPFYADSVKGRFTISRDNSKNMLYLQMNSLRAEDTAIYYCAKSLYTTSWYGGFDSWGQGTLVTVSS VL: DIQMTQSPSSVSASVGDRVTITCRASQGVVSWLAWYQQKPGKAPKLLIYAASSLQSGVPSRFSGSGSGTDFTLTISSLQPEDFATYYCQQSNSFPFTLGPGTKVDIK"
  log10 IC50: -0.07

Hey, just so you know, these numbers are from patent US20160362487A1.
